Cited source: ChEMBL document CHEMBL1143122

A collection of compounds and their measured LC50
tested on: Malme-3M; assay: Antiproliferative activity against human MALME3M cells after 48 hrs; assay type: functional
Please respond with the number in µM and leave the unit unwritten.

C[C@@H](NC(=O)CCCCCCCCCCCCCCC[n+]1ccccc1)[C@@H](O)c1ccccc1.[Br-]	5.75
CCCCCCCCCCCCCCN[C@@H](CO)Cc1ccccc1	6.31
CCCCCCCCCCCCCCN[C@H](CO)[C@H](O)c1ccccc1	9.55

Using Malme-3M as the test system, report measured LC50 of "CCCCCCCCCCCCCCN[C@H](CO)[C@H](O)c1ccc([N+](=O)[O-])cc1.Cl" .
9.55

System Malme-3M. Read-out LC50. Item "CCCCCCCCCCCCCCN[C@@H](C)[C@H](O)c1ccccc1" . Report value.
6.46

# lookup: Malme-3M LC50, key = "C[C@H](NC(=O)CCCCCCCCCCCCCCC[n+]1ccccc1)[C@H](O)c1ccccc1.[Br-]"
20

Report value only: LC50, Malme-3M, "CCCCCCCCCCCCCCN[C@H](C)[C@@H](O)c1ccccc1.Cl"
6.03
